biological target: ALK tyrosine kinase receptor (Homo sapiens, UniProt Q9UM73); assay: Inhibition of ALK
Sequence (Q9UM73 whole entry): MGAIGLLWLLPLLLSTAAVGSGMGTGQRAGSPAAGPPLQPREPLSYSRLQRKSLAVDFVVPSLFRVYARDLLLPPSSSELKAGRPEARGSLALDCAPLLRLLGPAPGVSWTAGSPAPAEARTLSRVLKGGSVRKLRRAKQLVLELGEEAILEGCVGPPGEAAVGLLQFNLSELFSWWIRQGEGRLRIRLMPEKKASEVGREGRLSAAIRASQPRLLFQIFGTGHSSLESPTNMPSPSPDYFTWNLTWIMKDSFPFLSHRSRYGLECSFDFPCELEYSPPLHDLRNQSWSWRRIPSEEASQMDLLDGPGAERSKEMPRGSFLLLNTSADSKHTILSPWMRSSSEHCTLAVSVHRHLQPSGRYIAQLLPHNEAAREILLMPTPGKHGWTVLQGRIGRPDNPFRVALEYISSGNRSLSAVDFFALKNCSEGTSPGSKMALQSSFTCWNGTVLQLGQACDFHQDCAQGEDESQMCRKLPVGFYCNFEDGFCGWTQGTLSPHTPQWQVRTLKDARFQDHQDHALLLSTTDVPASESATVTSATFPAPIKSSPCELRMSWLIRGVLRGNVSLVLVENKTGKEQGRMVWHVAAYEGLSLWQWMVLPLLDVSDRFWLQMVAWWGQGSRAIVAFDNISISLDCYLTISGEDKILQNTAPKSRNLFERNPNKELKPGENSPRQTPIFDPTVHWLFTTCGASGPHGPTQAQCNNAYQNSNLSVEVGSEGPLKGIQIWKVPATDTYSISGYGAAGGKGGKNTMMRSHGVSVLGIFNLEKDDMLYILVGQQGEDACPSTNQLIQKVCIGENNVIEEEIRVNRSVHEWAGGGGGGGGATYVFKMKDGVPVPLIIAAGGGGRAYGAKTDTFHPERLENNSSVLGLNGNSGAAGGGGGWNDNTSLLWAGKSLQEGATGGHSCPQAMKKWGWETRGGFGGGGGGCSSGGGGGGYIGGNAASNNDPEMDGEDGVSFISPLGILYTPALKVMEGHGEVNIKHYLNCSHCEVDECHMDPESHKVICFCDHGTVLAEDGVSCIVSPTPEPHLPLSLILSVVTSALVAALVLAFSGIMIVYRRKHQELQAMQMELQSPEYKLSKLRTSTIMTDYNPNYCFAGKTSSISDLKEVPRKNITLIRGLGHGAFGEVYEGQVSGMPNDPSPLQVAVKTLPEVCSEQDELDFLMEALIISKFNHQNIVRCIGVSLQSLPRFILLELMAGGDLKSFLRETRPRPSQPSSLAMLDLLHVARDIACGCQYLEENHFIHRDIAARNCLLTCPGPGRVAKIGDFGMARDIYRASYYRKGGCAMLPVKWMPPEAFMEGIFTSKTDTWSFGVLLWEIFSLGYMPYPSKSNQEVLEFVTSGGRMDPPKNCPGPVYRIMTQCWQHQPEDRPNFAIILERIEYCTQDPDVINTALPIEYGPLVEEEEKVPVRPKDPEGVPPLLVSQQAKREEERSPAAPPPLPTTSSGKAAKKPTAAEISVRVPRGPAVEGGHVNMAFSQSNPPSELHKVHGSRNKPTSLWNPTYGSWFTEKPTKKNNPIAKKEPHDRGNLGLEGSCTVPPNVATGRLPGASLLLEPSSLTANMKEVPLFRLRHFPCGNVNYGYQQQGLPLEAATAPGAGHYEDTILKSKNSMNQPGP
With a cut-off of 80 nM, any IC50 strictly below it is called class 1; any IC50 meeting it or above is called class 0.

# count of solved cases: 2
# Compound, Target of assay, Qualitative label
rows = [
    ("COCCN1CCc2ccc(Nc3ncc(Cl)c(N[C@H]4CC[C@@H](NS(C)(=O)=O)CC4)n3)cc2CC1", "ALK tyrosine kinase receptor (Homo sapiens, UniProt Q9UM73)", "class 0"),
    ("CCN1CCc2ccc(Nc3ncc(Cl)c(N[C@@H]4CCCC[C@H]4NC(=O)N(C)C)n3)cc2CC1", "ALK tyrosine kinase receptor (Homo sapiens, UniProt Q9UM73)", "class 0"),
]

Please determine if COCCN1CCc2ccc(Nc3ncc(Cl)c(N[C@@H]4CCCC[C@H]4NS(C)(=O)=O)n3)cc2CC1 is below 80 nM in terms of IC50.
class 1

---

test: Drug level in tumor of Karpas-299 cells xenografted mouse at 30 mg/kg, po administered as single dose measured after 6 hrs; format: ADME, organism-based, Neoplasm; design: dose 30 mg/kg, route oral; settings: read-out: Drug uptake
Measure name: concentration at 6 h (ng/g)
The figure you give is taken to be in ng/g; do not add the unit.

# lookup: concentration at 6 h of COCCN1CCc2cc(Nc3ncc(Cl)c(N[C@@H]4CCCC[C@H]4NS(C)(=O)=O)n3)c(OC)cc2CC1
602

---

assay: Volume of distribution in Sprague-Dawley rat at 1 mg/kg, iv; format: ADME, organism-based; design: dose 1 mg/kg, route intravenous; conditions: in vivo
Measure name: Vd
Could you kindly put the unit after your number?

Consider the molecule shown here: COCCN1CCc2cc(Nc3ncc(Cl)c(N[C@@H]4CCCC[C@H]4NS(C)(=O)=O)n3)c(OC)cc2CC1 What is its recorded Vd?
10.1 L/kg

---

experiment: Half life in Sprague-Dawley rat at 1 mg/kg, iv; type: ADME, organism-based; set-up: dose 1 mg/kg, route intravenous; conditions: in vivo
Measure name: half-life (min)
Write it as a number; the unit min goes unstated.

Which half-life is reported for this compound? COCCN1CCc2cc(Nc3ncc(Cl)c(N[C@@H]4CCCC[C@H]4NS(C)(=O)=O)n3)c(OC)cc2CC1
36

---

experiment: Half life in CD1 mouse at 10 mg/kg, po; assay type: ADME, organism-based; design: dose 10 mg/kg, route oral; details: in vivo
Measure name: half-life (h)
Dear colleague, please return just the value in h, with no unit written.

For the compound COCCN1CCc2cc(Nc3ncc(Cl)c(N[C@@H]4CCCC[C@H]4NS(C)(=O)=O)n3)c(OC)cc2CC1 , what half-life is on record?
1

---

test: AUC (0 to t) in Sprague-Dawley rat at 5 mg/kg, po; type: ADME, organism-based; parameters: dose 5 mg/kg, route oral; details: plasma
Measure name: AUC(0-t) (ng·h/mL)
Respond numerically; units are ng·h/mL and should not be typed.

Give the measured AUC(0-t) of COCCN1CCc2cc(Nc3ncc(Cl)c(N[C@@H]4CCCC[C@H]4NS(C)(=O)=O)n3)c(OC)cc2CC1 .
110

---

test: AUC (0 to t) in CD1 mouse at 10 mg/kg, po; assay type: ADME, organism-based; design: dose 10 mg/kg, route oral; settings: plasma
Measure name: AUC(0-t) (ng·h/mL)
// units = ng·h/mL; emit number, no label

What value of AUC(0-t) has been reported for the following molecule? COCCN1CCc2cc(Nc3ncc(Cl)c(N[C@@H]4CCCC[C@H]4NS(C)(=O)=O)n3)c(OC)cc2CC1
8200
